// reported self-cleavage kobs at 10000 uM GlcN6P per item
B1: glmS ribozyme (parent)
chain: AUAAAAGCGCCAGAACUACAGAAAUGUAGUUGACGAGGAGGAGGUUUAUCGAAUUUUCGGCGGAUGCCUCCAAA

- Variants of: B1
- assay explanation: self-cleavage kobs at 10000 uM GlcN6P; higher = faster cleavage; RNA array
- experimental conditions: with glucosamine-6-phosphate
This sample holds only a part of the variants without activity.

[
  {
    "mutant id": "G7A G38U C58A",
    "self-cleavage kobs at 10000 uM GlcN6P": "< 1e-05 s⁻¹"
  },
  {
    "mutant id": "A48U U49C",
    "self-cleavage kobs at 10000 uM GlcN6P": "< 1e-05 s⁻¹"
  },
  {
    "mutant id": "A36G G62U",
    "self-cleavage kobs at 10000 uM GlcN6P": "< 1e-05 s⁻¹"
  },
  {
    "mutant id": "U45A U49C",
    "self-cleavage kobs at 10000 uM GlcN6P": "< 1e-05 s⁻¹"
  },
  {
    "mutant id": "G35A G38U A53C C70U",
    "self-cleavage kobs at 10000 uM GlcN6P": "< 1e-05 s⁻¹"
  },
  {
    "mutant id": "A39U G43A U47C G59A C67U",
    "self-cleavage kobs at 10000 uM GlcN6P": "< 1e-05 s⁻¹"
  },
  {
    "mutant id": "G13U A53G",
    "self-cleavage kobs at 10000 uM GlcN6P": "0.00168 s⁻¹"
  },
  {
    "mutant id": "A6G C50G C68U",
    "self-cleavage kobs at 10000 uM GlcN6P": "7.92e-05 s⁻¹"
  },
  {
    "mutant id": "C11G A33G G40U C70U",
    "self-cleavage kobs at 10000 uM GlcN6P": "< 1e-05 s⁻¹"
  },
  {
    "mutant id": "G9U G41U A42G A64U C71U",
    "self-cleavage kobs at 10000 uM GlcN6P": "< 1e-05 s⁻¹"
  },
  {
    "mutant id": "A6U G37A U55G C71G",
    "self-cleavage kobs at 10000 uM GlcN6P": "< 1e-05 s⁻¹"
  },
  {
    "mutant id": "A42G G43U C70U",
    "self-cleavage kobs at 10000 uM GlcN6P": "< 1e-05 s⁻¹"
  },
  {
    "mutant id": "A53U C68G",
    "self-cleavage kobs at 10000 uM GlcN6P": "7.67e-05 s⁻¹"
  },
  {
    "mutant id": "A6G U55G G66C C70A",
    "self-cleavage kobs at 10000 uM GlcN6P": "0.000165 s⁻¹"
  },
  {
    "mutant id": "G40A G44U U47G G60U C61U C68U",
    "self-cleavage kobs at 10000 uM GlcN6P": "< 1e-05 s⁻¹"
  },
  {
    "mutant id": "U55G C67G",
    "self-cleavage kobs at 10000 uM GlcN6P": "0.00597 s⁻¹"
  },
  {
    "mutant id": "G13C A15U C58G",
    "self-cleavage kobs at 10000 uM GlcN6P": "0.000104 s⁻¹"
  },
  {
    "mutant id": "A1U U2G A3G C8G C34G",
    "self-cleavage kobs at 10000 uM GlcN6P": "< 1e-05 s⁻¹"
  },
  {
    "mutant id": "A6G G44U",
    "self-cleavage kobs at 10000 uM GlcN6P": "< 1e-05 s⁻¹"
  },
  {
    "mutant id": "G7C G29A",
    "self-cleavage kobs at 10000 uM GlcN6P": "< 1e-05 s⁻¹"
  },
  {
    "mutant id": "G43A C67G",
    "self-cleavage kobs at 10000 uM GlcN6P": "0.00126 s⁻¹"
  },
  {
    "mutant id": "U45G A48U",
    "self-cleavage kobs at 10000 uM GlcN6P": "0.000246 s⁻¹"
  }
]
